experimental.readout: melting point

Problem: # melting point lookup, item CCOC1Nc2c(ccc(OC)c2OC(C)=O)C(=O)N2CCCC12 (stereo not given)
Result: 143 to 146 °C

Problem: # input compound: NC(=O)c1c(Cl)ccc(Br)c1Cl ; wanted: its melting point
Result: 117 to 119 °C

Problem: Which melting point value belongs to CS(=O)(=O)Nc1ccc2c(c1)S(=O)(=O)NC(C1CCCCC1)N2 (stereo not given) ?
Result: 255 to 258 °C

Problem: // melting point lookup, key: COc1cc(OC)nc(NC(=O)NS(=O)(=O)Oc2ccccc2-c2csnn2)n1
Result: 173 to 175 °C

Problem: Which melting point reading was recorded for the compound NC(=O)N(O)CC=Cc1ccccc1Sc1ccc(Cl)cc1 ?
Result: 126 to 128 °C

Problem: Fill in the blank: the reported melting point of O=C1[C@H](CC[C@H](O)c2ccc(F)cc2)[C@@H](c2ccc(Br)cc2OCc2ccccc2)N1c1ccccc1 is ____.
Result: 114 °C

Problem: Look up melting point: Nc1ccc(Oc2ccc3sncc3c2)c(C(F)(F)F)c1
Result: 136 °C

Problem: Reported melting point for CCOC(=O)c1c(C(C)(C)O)nc(SC)n1Cc1ccc(-c2ccccc2-c2nnn[nH]2)cc1 : what is it?
Result: 125 to 127 °C

Problem: Please give the measured melting point for this compound: Cc1cc(Nc2nc(Nc3ccc(N)cc3)nc3ccccc23)[nH]n1
Result: 164 to 167 °C

Problem: // query melting point value for entry CC(=O)c1ccc(-c2ccc(Cl)c(Cl)c2)o1
Result: 114 to 117 °C
